Counter-ions that a name gives are not always drawn.
I'd be grateful if you could share measured IC50 for these entries.

*Q* Item CCN1CCN(c2ccc(-c3n[nH]c4cc([C@@H]5C[C@@]56C(=O)Nc5ccc(OC)cc56)ccc34)cc2)CC1 [Example A99, 2,2,2-trifluoroacetate] with Aurora B (Homo sapiens (Human), UniProt Q96GD4) - IC50?
*A* < 100 nM

*Q* Form: Entry = COc1ccc2c(c1)[C@@]1(C[C@@H]1c1ccc3c(-c4ccc(N5CCN(C)CC5)nc4)n[nH]c3c1)C(=O)N2 [Example A15] | System = Aurora B (Homo sapiens (Human), UniProt Q96GD4) | IC50 = ____
*A* > 1000 nM

*Q* Find the measured IC50: item CN1CCC(Cc2ccc(/C=C/c3n[nH]c4cc([C@@H]5C[C@@]56C(=O)Nc5ccccc56)ccc34)cc2)CC1 [Example A81, 2,2,2-trifluoroacetate salt] , target or system Aurora B (Homo sapiens (Human), UniProt Q96GD4).
*A* < 100 nM

*Q* Record lookup: for Aurora B (Homo sapiens (Human), UniProt Q96GD4), what IC50 belongs to COc1ccc2c(c1)[C@]1(C[C@H]1c1ccc3c(/C=C/c4ccc(CCN5CCOCC5)cc4)n[nH]c3c1)C(=O)N2 [Example A177, 2,2,2-trifluoroacetate] ?
*A* < 100 nM

*Q* Please tell me: IC50 of O=C1Nc2ccccc2[C@]12C[C@H]2c1ccc2c(/C=C/c3ccc(OCCN4CCOCC4)cc3)n[nH]c2c1 [Example A204, 2,2,2-trifluoroacetate] , system Aurora B (Homo sapiens (Human), UniProt Q96GD4)?
*A* < 100 nM

*Q* Please tell me: IC50 of COc1ccc2c(c1)[C@]1(C[C@H]1c1ccc3c(/C=C/c4ccc(CN5CCCC5)cc4)n[nH]c3c1)C(=O)N2 [Example A83, 2,2,2-trifluoroacetate] , system Aurora B (Homo sapiens (Human), UniProt Q96GD4)?
*A* < 100 nM
